Target: HLA-DR2 molecules (Homo sapiens, UniProt P01903+P01911)
Construct: Soluble HLA-DR2 molecules were expressed in Drosophila S2 cells and purified as described; made in house; host or cells: Drosophila S2 cells
Assay: Competitive binding assay: inhibition of biotinylated Cop 1 binding to HLA-DR2 molecules
Conditions: biotinylated Cop 1 1.5 μM, recombinant HLA-DR2, one out of two independent experiments; read-out: IC50 (μM) vs. biotinylated: Cop 1
Endpoint Name: IC50

1) C[C@H](NC(=O)[C@H](C)NC(=O)[C@H](C)NC(=O)[C@H](C)NC(=O)[C@H](C)NC(=O)[C@H](C)NC(=O)[C@H](C)NC(=O)[C@H](C)NC(=O)[C@H](C)NC(=O)[C@H](C)NC(=O)[C@H](Cc1ccc(O)cc1)NC(=O)[C@H](C)NC(=O)[C@H](CCCCN)NC(=O)[C@H](CCCCN)NC(=O)[C@@H](N)CCC(=O)O)C(=O)O    > 1000 µM

Turning to the following compound.
INPUT: Give recorded IC50 with HLA-DR2 molecules (Homo sapiens, UniProt P01903+P01911) for the following compound: C[C@H](NC(=O)[C@H](C)NC(=O)[C@H](C)NC(=O)[C@H](C)NC(=O)[C@H](C)NC(=O)[C@H](C)NC(=O)[C@H](C)NC(=O)[C@H](C)NC(=O)[C@H](C)NC(=O)[C@H](C)NC(=O)[C@H](Cc1ccc(O)cc1)NC(=O)[C@H](C)NC(=O)[C@H](CCCCN)NC(=O)[C@H](CCC(=O)O)NC(=O)[C@@H](N)CCC(=O)O)C(=O)O
OUTPUT: > 1000 µM
